Can you tell me normalized growth for the items I'm about to list?
# experiment summary: chemical genetic growth profiling, strain panel (AID 1159580);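 further: tested at 20 µM; growth read once vehicle control cultures reached saturation at 30 °C; 1 = growth at the plate median or of vehicle wells; lower values mean less growth of the strain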
# experimental setup: S. cerevisiae deletion strains, growth OD, locus YGL173C, strain kem1, stronger effect = lower value
Out of some 5,500 compounds screened, about 2,000 (36%) were called active. Roughly 18% stayed inconclusive and do not appear here. The list shows a part of the results.

- compound: "FC(F)(F)c1ccccc1-n1ccnc1"
  normalized growth: "1.01 (inactive)"
- compound: "COc1c(-c2coc3cc4c(cc3c2=O)CC(OC(C)=O)C(C)(C)O4)ccc2c1C=CC(C)(C)O2 (stereo not given)"
  normalized growth: "1.03 (inactive)"
- compound: "CCOP(=S)(OCC)Oc1nc(Cl)c(Cl)cc1Cl"
  normalized growth: "0.977 (inactive)"
- compound: "Cc1cc(C(C)(C)C)c(O)c(C(C)(C)C)c1"
  normalized growth: "0.957 (inactive)"
- compound: "COc1cccc2c1C(=O)c1c(O)c3c(c(O)c1C2=O)C[C@@](O)(C(=O)CO)C[C@@H]3OC1C[C@H](N)[C@H](O)[C@H](C)O1 (stereo not given in full)"
  normalized growth: "1.01 (inactive)"

Required: normalized growth, one value per compound below.
1. OC(CCN1CCCC1)(c1ccccc1)C1CCCCC1 (stereo not given)
2. COc1cc(N)c(Cl)cc1C(=O)NC1CCN(Cc2ccccc2)CC1
3. N=C(N)c1ccc(OCCCCCOc2ccc(C(=N)N)cc2)cc1
4. Clc1ccccc1C(c1ccccc1)(c1ccccc1)n1ccnc1
5. CC(=O)NC(C(=O)O)C(C)(C)SN=O (stereo not given)
6. COc1c(-c2coc3cc4c(cc3c2=O)CC(O)C(C)(C)O4)ccc2c1C=CC(C)(C)O2 (stereo not given)
7. Nc1ccccc1C(=O)CC(N)C(=O)O (stereo not given)
8. C/C=C(/C)C(=O)OC1CCC2(C)C3CCC4C5(O)CC(O)C6(O)C(CN7CC(C)CCC7C6(C)O)C5(O)CC42OC13O (stereo not given)

Result:
0.972 (inactive)
0.998 (inactive)
0.865 (active)
0.07 (active)
0.995 (inactive)
0.989 (inactive)
1 (inactive)
0.998 (inactive)

Required: normalized growth, one value per compound below.
1. CC1(C)CC[C@]2(C)CC[C@]3(C)C(=CCC4[C@@]5(C)CC[C@H](O)C(C)(C)C5CC[C@]43C)C2C1 (stereo not given in full)
2. COC1=C[C@@H]2[C@@H]3Cc4ccc(OC)c(O)c4[C@]2(CCN3C)CC1=O
3. COC(=O)C[C@H]1C(C)(C)C(=O)[C@@H]2CC3C4=CC(=O)O[C@@H](c5ccoc5)[C@]4(C)CCC3[C@@]1(C)C2=O (stereo not given in full)

Result:
0.998 (inactive)
0.99 (inactive)
0.982 (inactive)

Required: normalized growth, one value per compound below.
1. COc1cccc2c1C(=O)c1c(O)c3c(c(O)c1C2=O)C[C@@](O)(C(=O)CO)C[C@@H]3O[C@H]1C[C@H](N)[C@@H](O)[C@H](C)O1
2. CC(C)(Sc1cc(C(C)(C)C)c(O)c(C(C)(C)C)c1)Sc1cc(C(C)(C)C)c(O)c(C(C)(C)C)c1

Result:
["0.997 (inactive)", "0.986 (inactive)"]

Required: normalized growth, one value per compound below.
1. NC(Cc1c[nH]c2ccccc12)C(=O)O (stereo not given)
2. N=C(N)SCCN

Result:
1.03 (inactive)
1 (inactive)

meta.source: PubChem BioAssay AID1159580
